Target: UniProt P47747
Sequence (P47747 whole entry): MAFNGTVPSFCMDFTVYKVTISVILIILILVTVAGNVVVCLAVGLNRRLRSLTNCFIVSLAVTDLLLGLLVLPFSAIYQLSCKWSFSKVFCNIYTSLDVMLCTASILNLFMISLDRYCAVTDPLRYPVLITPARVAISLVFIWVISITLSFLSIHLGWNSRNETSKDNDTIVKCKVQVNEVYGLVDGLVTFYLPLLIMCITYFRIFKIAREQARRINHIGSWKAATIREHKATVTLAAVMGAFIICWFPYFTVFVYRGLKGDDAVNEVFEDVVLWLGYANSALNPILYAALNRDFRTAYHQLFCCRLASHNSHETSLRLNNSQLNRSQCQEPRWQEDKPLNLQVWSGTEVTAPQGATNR
Test: Histamine H2 receptor antagonistic activity
pIC50: −log10 of the molar value.
Measurement Name: pIC50

Reference set, count: 3
Molecular String	Measurement Name	Result Number
CN(C)Cc1cc(OC/C=C\C/N=c2\c(O)c(O)c2=N)cs1	pIC50	6.16
C=CCNc1c(NC/C=C\COc2csc(CN3CCCCC3)c2)c(=O)c1=O	pIC50	5.90
CC(C)/N=c1\c(O)c(O)\c1=N/C/C=C\COc1csc(CN2CCCCC2)c1	pIC50	5.71

(1) C/N=c1\c(O)c(O)\c1=N/C/C=C\COc1csc(CN2CCCCC2)c1
(2) CN(C)CC/N=c1\c(O)c(O)\c1=N/C/C=C\COc1csc(CN2CCCCC2)c1
Query string: Input pair: 1 , 2 . Output: entry with lower pIC50. State the label of the item chosen.
Result string: 1

###

Target: UniProtKB P47747
Assay: Histamine H2 receptor antagonistic activity
Measurement Name: IC50 (nM)

Reference set, count: 2
Compound	Quantity Unit	IC50
O=c1c(NC/C=C\COc2csc(CN3CCCCC3)c2)c(NCCF)c1=O	nM	1060
CC(=O)OCC(=O)NCCCOc1cccc(CN2CCCCC2)c1 [ROXATIDINE ACETATE]	nM	4100

(1) Nc1c(NC/C=C\COc2csc(CN3CCCCC3)c2)c(=O)c1=O
(2) CN/C(=C/[N+](=O)[O-])NCCSCc1ccc(CN(C)C)o1 [RANITIDINE]
(3) COCC/N=c1\c(O)c(O)\c1=N/C/C=C\COc1csc(CN2CCCCC2)c1
(4) N#CCCNc1c(NC/C=C\COc2csc(CN3CCCCC3)c2)c(=O)c1=O
Query string: Please list these in order of increasing IC50. Thank you! Give the labels in the order requested.
Result string: 1, 4, 3, 2
